Target: human V1a receptor (Homo sapiens, UniProt P37288)
Construct: expressed in transfected cells; host or cells: HEK293 cells, transiently transfected; cell membranes
Sequence (P37288 whole entry): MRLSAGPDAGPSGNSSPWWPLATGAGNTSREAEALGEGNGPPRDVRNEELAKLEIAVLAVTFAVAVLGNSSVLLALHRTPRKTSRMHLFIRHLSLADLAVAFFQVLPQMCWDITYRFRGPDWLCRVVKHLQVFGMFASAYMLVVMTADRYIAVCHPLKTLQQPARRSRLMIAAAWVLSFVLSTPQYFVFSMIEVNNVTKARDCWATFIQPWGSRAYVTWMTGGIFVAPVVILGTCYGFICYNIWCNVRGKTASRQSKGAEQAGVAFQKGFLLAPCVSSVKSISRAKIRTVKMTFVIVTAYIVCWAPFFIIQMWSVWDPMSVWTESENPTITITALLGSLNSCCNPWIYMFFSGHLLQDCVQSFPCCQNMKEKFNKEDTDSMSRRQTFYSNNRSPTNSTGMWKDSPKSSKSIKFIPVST
Experiment: human V1a receptor binding studies (3H-Vasopressin SPA, HEK293 cell membranes)
Details: competition with 3H-Vasopressin on membranes of HEK293 cells transiently transfected with human V1a receptor; Ki by Cheng-Prussoff equation; read-out: pKi (hV1a) (converted)
test-readout: Ki (nM)

| compound | test-readout | measured |
| --- | --- | --- |
| Cc1ccc(-n2c(C)nnc2[C@H]2CC[C@H](Oc3ccc(C)nc3)CC2)cc1 | Ki | 3.39 |
| FC(F)(F)c1nnc([C@H]2CC[C@H](Oc3ccccn3)CC2)n1-c1ccc(Cl)cc1 | Ki | 2.14 |
| Cc1nnc([C@H]2CC[C@H](Oc3ccccn3)CC2)n1-c1ccc(Cl)cc1 | Ki | 0.912 |

(A) Cc1ccc(-n2c(C)nnc2[C@H]2CC[C@H](Oc3ccc(C)cn3)CC2)cc1
(B) CN(C)Cc1nnc([C@H]2CC[C@H](Oc3ccccn3)CC2)n1-c1ccc(Cl)cc1
*Q* For the pair A and B , which member has the lower Ki number? # reply format: chosen label
*A* A

(1) CSc1cc(Cl)ccc1-n1c(C)nnc1[C@H]1CC[C@H](Oc2ccccn2)CC1
(2) COCc1nnc([C@H]2CC[C@H](Oc3ccc(C)nc3)CC2)n1-c1ccc(Cl)cc1
(3) Cc1nnc([C@H]2CC[C@H](Oc3ccccn3)CC2)n1-c1ccc(F)c(F)c1
(4) Cc1nnc([C@H]2CC[C@H](Oc3ccc(C(F)F)cn3)CC2)n1-c1ccc(Cl)cc1
(5) Cc1nnc([C@H]2CC[C@H](Oc3ccccn3)CC2)n1-c1ccc(C(F)F)cc1
*Q* Kindly order the items shown according to Ki, from the highest value down. Submit the labels in the order that the ranking request calls for.
*A* 5, 3, 4, 1, 2

(A) COCc1nnc([C@H]2CC[C@H](Oc3ccc(C)nc3)CC2)n1-c1ccc(C)cc1
(B) Cc1ccc(-n2cnnc2[C@H]2CC[C@H](Oc3ccccn3)CC2)c(C)c1
(C) CS(=O)(=O)c1nnc([C@H]2CC[C@H](Oc3ccccn3)CC2)n1-c1ccc(Cl)cc1
*Q* Order the records, beginning with the lowest Ki and ending with the highest. Use the labels to give the requested order.
*A* B, A, C

(a) Clc1ccc(-n2cnnc2[C@H]2CC[C@H](Oc3ccccn3)CC2)cc1
(b) COc1nnc([C@H]2CC[C@H](Oc3ccccn3)CC2)n1-c1ccc(Cl)cc1
*Q* Sorting ascending by Ki, which comes first: a or b ? Write down the label attached to your selection.
*A* b

---

Molecular target: human V1a receptor (Homo sapiens, UniProt P37288)
Construct: expressed in transfected cells; host or cells: HEK293 cells, transiently transfected; cell membranes
Assay: human V1a receptor binding studies (3H-Vasopressin SPA, HEK293 cell membranes)
Conditions: competition with 3H-Vasopressin on membranes of HEK293 cells transiently transfected with human V1a receptor; Ki by Cheng-Prussoff equation; read-out: pKi (hV1a) (converted)
test-readout: Ki (nM)

Worked examples follow.
| molecule | unit-abbrev | measured |
| --- | --- | --- |
| CN(C)CCc1nnc([C@H]2CC[C@H](Oc3ccccn3)CC2)n1-c1ccc(Cl)cc1 [Example 47] | nM | 33.1 |
| Cc1nnc([C@H]2CC[C@H](Oc3ccccn3)CC2)n1-c1ccc(C#N)cc1 [Example 8] | nM | 38.9 |

(A) CN(C)CCOc1nnc([C@H]2CC[C@H](Oc3ccccn3)CC2)n1-c1ccc(Cl)cc1 [Example 51]
(B) Cc1nnc([C@H]2CC[C@H](Oc3ccccn3)CC2)n1-c1ccc(Cl)cn1 [Example 23]
(C) Cc1nnc([C@H]2CC[C@H](Oc3ccccn3)CC2)n1-c1ccc(Br)cc1 [Example 9]
(D) COCc1nnc([C@H]2CC[C@H](Oc3cnccn3)CC2)n1-c1ccc(C)cc1 [Example 68]
(E) Cc1nnc([C@H]2CC[C@H](Oc3ccccn3)CC2)n1-c1ccc(Cl)cc1F [Example 12]
*Q* rank_up(items): orders items by reported Ki in ascending numerical order. Present the labels in the sequence the task asks for.
*A* C, E, D, B, A
